Data origin: PubChem BioAssay (NCI)

tested on: BT-549 breast; experiment: NCI-60 one-dose screen, 48 h (100 = growth as untreated, 0 = no growth, -100 = all killed); conditions: 10 µM
This is part of a sample that, as a whole, favours compounds with a hit. Of some 83,000 tested, about 20% had one in any assay.
Measured growth, listed per entry for reference.
Enter your answer as a number in %; do not include the unit.

Observe how each entry below is paired with its result.
COc1cc2c(cc1O)CC[C@@H]1C2CC[C@@]2(C)C1CC[C@@H]2O (stereo partly drawn) | 23.4
CC1(C)N=C(N)N=C(N)N1c1cccc(Br)c1 | 46.7
COC(=O)Nc1nc2ccc(C(=O)c3cccs3)cc2[nH]1 | 26.3
Oc1ccc2c(c1)OCC1(O)Cc3cc(O)c(O)cc3C21 (stereo not drawn) | 88.9
NCC(=O)CCC(=O)O | 110
CC(=O)/C(Cc1ccccc1)=N/O | 90.8

Incoming: // growth lookup, key: OCC(O)C(O)C(O)C(O)/C=N/O (stereo not drawn)
Outgoing: 91.5

Incoming: // growth lookup, key: `O=C1C=C(Nc2ccc([N+](=O)[O-])cc2)c2ccccc2C1=O`
Outgoing: -1.53

Incoming: // growth lookup, key: `CCn1c(=O)n(C)c2c(=O)n(C)c(=O)n(C)c21`
Outgoing: 101
